Source of measurements: the METLIN SMRT retention time set (Domingo-Almenara et al. 2019)

# method_description: gradient 5% acetonitrile 3 min, to 50% in 2 min, to 85% in 15 min, held 3 min, 100 µL/min
# recorded_conditions: column: Zorbax Extend-C18 2.1 x 50 mm; eluents: water / acetonitrile, 0.1% formic acid
Listed compounds paired with reported RP-LC retention time
Lab book: enter the figure in s, no units written.

Past entries and their recorded results:
{"compound": "CCNC(=O)c1sc2nc(-c3cccc(C)c3)c(NCCOC)n2c1C", "assay_readout": "RP-LC retention time", "recorded_number": 737}
{"compound": "CC(C)C(=O)NCCc1csc(C2CCCN(C(=O)c3cc4ccccc4[nH]3)C2)n1 (stereo not given)", "assay_readout": "RP-LC retention time", "recorded_number": 803}
{"compound": "CC(=O)CC(=O)Nc1ccc2ccccc2c1", "assay_readout": "RP-LC retention time", "recorded_number": 800}
{"compound": "O=C(Nc1cccc2c1CCCC2)C1CCN(S(=O)(=O)c2ccc3[nH]c(=O)ccc3c2)CC1", "assay_readout": "RP-LC retention time", "recorded_number": 808}
{"compound": "Cc1ccc(S(=O)(=O)N2CCC3(CC2)NCCN=C3NCc2ccc(F)cc2)cc1C", "assay_readout": "RP-LC retention time", "recorded_number": 757}
{"compound": "CC(=O)Nc1ccc(C(=O)N2CC3CN(S(=O)(=O)c4cccc(F)c4)CC(C2)O3)cc1", "assay_readout": "RP-LC retention time", "recorded_number": 685}

Exercise: Entry `CCOCCCNC(=O)CCc1nnc2c3cc(-c4ccc(C)c(C)c4)nn3ccn12` : reported RP-LC retention time = ?
Key: 753

Exercise: // same read-out, input: `Cc1cc(N(C)C)n2nc(CN3CCN(c4ccccc4Cl)CC3)nc2n1`
Key: 627

Exercise: // same read-out, input: `CCOc1ccccc1N1CCN(S(=O)(=O)c2nn(C)cc2C(=O)NCCCOC(C)C)CC1`
Key: 971

----------
Listed molecules paired with reported RP-LC retention time
# method_description: gradient 5% acetonitrile 3 min, to 50% in 2 min, to 85% in 15 min, held 3 min, 100 µL/min
# recorded_conditions: column: Zorbax Extend-C18 2.1 x 50 mm; eluents: water / acetonitrile, 0.1% formic acid
Lab book: enter the figure in s, no units written.

Past entries and their recorded results:
{"molecule": "COc1ccc(C2(c3nc(CCS(=O)(=O)c4ccccc4)no3)CC2)cc1", "unit_annotation": "s", "RP-LC retention time": 959}
{"molecule": "C=CCNC(=O)c1cn(-c2ccc(-c3nc(C(C)C)no3)cn2)cn1", "unit_annotation": "s", "RP-LC retention time": 824}
{"molecule": "CC1=C(c2ccccc2)S(=O)(=O)N=C1N1CCCN(C(=O)c2cccs2)CC1", "unit_annotation": "s", "RP-LC retention time": 770}
{"molecule": "O=C(NCc1ccccc1)C1CCc2nc(N3CCCCC3)ncc2C1 (stereo unspecified)", "unit_annotation": "s", "RP-LC retention time": 720}
{"molecule": "O=c1c2oc3ccccc3c2ncn1Cc1nc(-c2cccc(Cl)c2)no1", "unit_annotation": "s", "RP-LC retention time": 1010}

Exercise: Entry `O=c1ccc(-c2cccs2)nn1CCCNS(=O)(=O)c1cccc(Cl)c1Cl` : reported RP-LC retention time = ?
Key: 856

Exercise: // same read-out, input: `O=c1n(Cc2ccc(F)cc2)nc2ccc(S(=O)(=O)N3CCCCC3)cn12`
Key: 923

Exercise: // same read-out, input: CCCCOc1cc(CC2CNC(=O)N2)ccc1OC (stereo unspecified)
Key: 798

Exercise: // same read-out, input: `CCOc1ccccc1N1CCN(C(=O)C2CCN(c3ncnc4c3oc3ccccc34)CC2)CC1`
Key: 814

----------
# method_description: gradient 5% acetonitrile 3 min, to 50% in 2 min, to 85% in 15 min, held 3 min, 100 µL/min
# recorded_conditions: column: Zorbax Extend-C18 2.1 x 50 mm; eluents: water / acetonitrile, 0.1% formic acid
assay_readout: RP-LC retention time

Past entries and their recorded results:
{"compound": "O=C(NC1CCc2nnc(C3CC3)n2CC1)c1ccc(Cn2cncn2)o1 (centres undefined)", "result": "558 s"}
{"compound": "CCCC(=O)N1CCc2c([nH]c3ccc(OC)cc23)C1c1ccc(F)cc1 (centres undefined)", "result": "1040 s"}

Exercise: Entry CN1c2cc(C(=O)NCc3ccncc3)ccc2C(=O)N2CCCCC21 (centres undefined) : reported RP-LC retention time = ?
Key: 586 s

Exercise: // same read-out, input: CCC1Oc2ccc(S(=O)(=O)N3CCC(C(=O)Nc4ccc(F)cc4C)CC3)cc2NC1=O (centres undefined)
Key: 922 s

Exercise: // same read-out, input: `CCCCNC(=O)C1CCN(Cc2cn(C)c3ccc(Cl)cc23)CC1`
Key: 667 s

Exercise: // same read-out, input: `CCCNc1c(C(=O)OC)c(=O)[nH]c2ccc(F)cc12`
Key: 699 s

Exercise: // same read-out, input: `Cc1cc(OCC(=O)Nc2cccc(Cl)c2)nc(N2CCN(c3ccccc3)CC2)n1`
Key: 904 s

Exercise: // same read-out, input: `Cc1nc(-c2noc(-c3ccccc3)n2)cn1CC(=O)NCc1ccc2c(c1)OCO2`
Key: 800 s

Exercise: // same read-out, input: Cc1ccccc1CNC(=O)C1CCCN1S(=O)(=O)c1cc2c(cc1C)NC(=O)CO2 (centres undefined)
Key: 732 s

----------
Listed compounds paired with reported RP-LC retention time
# method_description: gradient 5% acetonitrile 3 min, to 50% in 2 min, to 85% in 15 min, held 3 min, 100 µL/min
# recorded_conditions: column: Zorbax Extend-C18 2.1 x 50 mm; eluents: water / acetonitrile, 0.1% formic acid
Lab book: enter the figure in s, no units written.

Past entries and their recorded results:
{"compound": "O=S(=O)(NCCOc1cc(N2CCCC2)ncn1)c1ccc(Cl)s1", "unit_annotation": "s", "recorded_number": 664}
{"compound": "O=C(N[C@H](Cc1ccccc1)C(=O)NCc1cscn1)c1ccc(F)cc1", "unit_annotation": "s", "recorded_number": 1090}
{"compound": "CN1C2CCC1CC(OC(=O)[C@H](CO)c1ccccc1)C2 (some centres undefined)", "unit_annotation": "s", "recorded_number": 667}
{"compound": "COc1ccc(OC)c(S(=O)(=O)Nc2ccc(Oc3nc4ccccc4n4cnnc34)cc2)c1", "unit_annotation": "s", "recorded_number": 766}
{"compound": "Cc1nc2cc(-c3noc(Cc4ccccc4C)n3)ccc2o1", "unit_annotation": "s", "recorded_number": 1060}
{"compound": "COc1cccc(-c2noc(Cc3nnc(-c4ccc(C)c(C)c4)o3)n2)c1OC", "unit_annotation": "s", "recorded_number": 1060}
{"compound": "CCc1ccc(CNC(=O)C2CCN(c3ncccc3S(=O)(=O)N3CCCCC3)CC2)cc1", "unit_annotation": "s", "recorded_number": 1040}
{"compound": "Nc1c(C(=O)NCc2ccc3c(c2)OCO3)nsc1C(=O)N1CCN(c2ncccn2)CC1", "unit_annotation": "s", "recorded_number": 850}

Exercise: Entry Cc1ccc(Cl)cc1NC(=O)C1CC(=O)N(CCc2c[nH]c3ccc(F)cc23)C1 (centres undefined) : reported RP-LC retention time = ?
Key: 875

Exercise: // same read-out, input: `COc1cccc(S(=O)(=O)NCc2cccnc2-c2cccc(C)c2)c1`
Key: 718

Exercise: // same read-out, input: `CCOc1ncccc1CNC(=O)c1ccc2cc[nH]c2c1`
Key: 756

Exercise: // same read-out, input: `O=C(c1cccs1)N1CCC2(CC1)N=C(c1ccccc1)NO2`
Key: 747

Exercise: // same read-out, input: `CCN(CC)c1nc2cc(C(=O)OC)ccc2c(=O)n1-c1cccc(F)c1`
Key: 1120

Exercise: // same read-out, input: O=C(CCc1ccccc1)Nc1nnc(C2CC(=O)N(c3ccc(Cl)cc3)C2)o1 (centres undefined)
Key: 805

----------
# method_description: gradient 5% acetonitrile 3 min, to 50% in 2 min, to 85% in 15 min, held 3 min, 100 µL/min
# recorded_conditions: column: Zorbax Extend-C18 2.1 x 50 mm; eluents: water / acetonitrile, 0.1% formic acid
Quick rule: RP-LC retention time of at least 700 s means rule met, below that means rule not met.

{"molecule": "COc1cccc(S(=O)(=O)N2CCC3(C2)C(=O)Nc2ccc(OC)cc23)c1 (stereo not given)", "class_assignment": "rule met"}
{"molecule": "O=C(NC1CCCN(c2cc(-c3ccncc3)[nH]n2)C1)c1ccc(F)cc1 (stereo not given)", "class_assignment": "rule not met"}

Attention now turns to another entry.
Exercise: Quick check, RP-LC retention time >= 700 s? `Cc1ccc(CNC(=O)C2CCN(Cc3cc4ccccc4n3Cc3ccccc3C)CC2)o1`
Key: rule met
